# credit: patent US20120207760A1

experimental target: hemagglutinin (HA) of influenza A/Solomon Islands/3/06 H1N1 (Influenza A virus A/Solomon …)
protocol notes: cell-based or functional assay
Overview of reported % Neutralization across a group of binders:

{"columns": ["binder", "% Neutralization (%)"],
 "data": [
  ["TCN-560 (5084_P10) (antibody, V domains shown) VH: EVQLVESGGGLVQPGGSLRLSCAASGFIFRNYWMSWVRQAPGKGLEWVANIKQDGREKYYVDSLRGRVNISRDNAENSLYLHMNSLRVEDTAVYFCARARMVVVTGDGFDVWGHGTMVTVSS VL: DIQMTQSPSSLSASVGDRVTITCRASQNIKRYFNWYQQKPGKAPKLLIYAASNLENGVPSRFSGSGSGTDFTLTISSLQPEDFATYYCQQSFSKSWTFGQGTNVDIK", 94],
  ["TCN-538 (3206_O17) (antibody, V domains shown) VH: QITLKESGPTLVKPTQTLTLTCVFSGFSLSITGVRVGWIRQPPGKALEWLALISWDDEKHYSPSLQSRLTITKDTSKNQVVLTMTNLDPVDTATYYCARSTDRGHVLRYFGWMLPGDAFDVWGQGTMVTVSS VL: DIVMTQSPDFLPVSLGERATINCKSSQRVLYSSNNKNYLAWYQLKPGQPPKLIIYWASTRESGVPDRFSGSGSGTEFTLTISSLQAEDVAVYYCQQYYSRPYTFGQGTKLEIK", 35],
  ["TCN-545 (5082_I15) (antibody, V domains shown) VH: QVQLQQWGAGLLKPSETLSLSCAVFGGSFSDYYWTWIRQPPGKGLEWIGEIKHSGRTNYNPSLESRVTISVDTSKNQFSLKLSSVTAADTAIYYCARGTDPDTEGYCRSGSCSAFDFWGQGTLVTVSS VL: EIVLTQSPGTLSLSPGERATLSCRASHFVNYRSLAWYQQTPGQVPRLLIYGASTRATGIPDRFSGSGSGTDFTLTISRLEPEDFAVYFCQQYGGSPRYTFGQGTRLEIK", 98],
  ["TCN-528 (5087_P17) (antibody, V domains shown) VH: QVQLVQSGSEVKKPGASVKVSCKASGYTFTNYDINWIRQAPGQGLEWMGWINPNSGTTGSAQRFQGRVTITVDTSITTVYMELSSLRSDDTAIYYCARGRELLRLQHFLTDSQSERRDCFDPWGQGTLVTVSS VL: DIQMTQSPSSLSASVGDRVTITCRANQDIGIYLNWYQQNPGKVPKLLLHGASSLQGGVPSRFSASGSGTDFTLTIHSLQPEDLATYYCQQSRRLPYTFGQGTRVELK", 0]
]}
